# tested.system: human TAS2R4 (Homo sapiens, UniProt Q9NYW5)
# Construct: expressed in transfected cells; host or cells: HEK293T-Gα16gust44
# Sequence (Q9NYW5 whole entry): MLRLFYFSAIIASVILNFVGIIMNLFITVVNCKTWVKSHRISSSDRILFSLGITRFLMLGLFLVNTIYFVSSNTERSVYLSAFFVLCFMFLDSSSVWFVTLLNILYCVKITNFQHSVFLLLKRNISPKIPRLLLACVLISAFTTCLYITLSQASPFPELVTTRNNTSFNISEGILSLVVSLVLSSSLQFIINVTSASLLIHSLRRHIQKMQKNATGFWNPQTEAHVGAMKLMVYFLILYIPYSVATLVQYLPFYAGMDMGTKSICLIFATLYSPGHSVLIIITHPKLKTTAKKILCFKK
# assay.details: Calcium imaging assay (FLIPR), HEK293T-Gα16gust44 cells transfected with human TAS2R4; also: test concentration or dose not given here
# Assay type: cell-based
# condition.description: Time (s) 88.781 (TCA, TLCA: 88.782)
observation.type: RLU, fluorescence trace (RLU)

compound="C[C@H](CCC(=O)NCCS(=O)(=O)O)[C@H]1CC[C@H]2[C@@H]3CC[C@@H]4C[C@H](O)CC[C@]4(C)[C@H]3CC[C@]12C [Taurolithocholic Acid, taurolithocholic acid]" endpoint_value=289.096
compound="C[C@H](CCC(=O)O)[C@H]1CC[C@H]2[C@@H]3[C@H](O)C[C@@H]4C[C@H](O)CC[C@]4(C)[C@H]3C[C@H](O)[C@]12C [Cholic Acid, cholic acid]" endpoint_value=652.467
compound="C[C@H](CCC(=O)O)[C@H]1CC[C@H]2[C@@H]3[C@@H](O)C[C@@H]4C[C@H](O)CC[C@]4(C)[C@H]3CC[C@]12C [Ursodeoxycholic Acid, ursodeoxycholic acid]" endpoint_value=322.366
compound="C[C@H](CCC(=O)NCC(=O)O)[C@H]1CC[C@H]2[C@@H]3[C@H](O)C[C@@H]4C[C@H](O)CC[C@]4(C)[C@H]3C[C@H](O)[C@]12C [Glycocholic Acid, glycocholic acid]" endpoint_value=732.115
compound="C[C@H](CCC(=O)NCCS(=O)(=O)O)[C@H]1CC[C@H]2[C@@H]3[C@H](O)C[C@@H]4C[C@H](O)CC[C@]4(C)[C@H]3C[C@H](O)[C@]12C [Taurocholic Acid, taurocholic acid]" endpoint_value=644.228
compound="C[C@H](CCC(=O)O)[C@H]1CC[C@H]2[C@@H]3CC[C@@H]4C[C@H](O)CC[C@]4(C)[C@H]3C[C@H](O)[C@]12C [Deoxycholic Acid, deoxycholic acid]" endpoint_value=345.388

###

# tested.system: human TAS2R1 (Homo sapiens, UniProt Q9NYW7)
# Construct: expressed in transfected cells; host or cells: HEK293T-Gα16gust44
# Sequence (Q9NYW7 1-299): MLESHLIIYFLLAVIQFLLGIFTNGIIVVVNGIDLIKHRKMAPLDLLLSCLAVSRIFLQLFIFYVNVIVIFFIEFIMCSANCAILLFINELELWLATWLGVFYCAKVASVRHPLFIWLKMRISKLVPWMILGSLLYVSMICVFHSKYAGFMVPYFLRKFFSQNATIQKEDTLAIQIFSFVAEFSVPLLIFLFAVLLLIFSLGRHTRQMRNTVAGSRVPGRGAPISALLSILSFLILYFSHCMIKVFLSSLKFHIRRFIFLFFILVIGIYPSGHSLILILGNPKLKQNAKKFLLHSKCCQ
# assay.details: Calcium imaging assay (FLIPR), HEK293T-Gα16gust44 cells transfected with human TAS2R1
# Assay type: cell-based
# condition.description: Time 203.547 s
Known RLU of a selection of compounds
observation.type: RLU

smi=C[C@H](CCC(=O)NCCS(=O)(=O)O)[C@H]1CC[C@H]2[C@@H]3[C@H](O)C[C@@H]4C[C@H](O)CC[C@]4(C)[C@H]3C[C@H](O)[C@]12C observation_type=RLU endpoint_value="75.6277 RLU"
smi=C[C@H](CCC(=O)O)[C@H]1CC[C@H]2[C@@H]3CC[C@@H]4C[C@H](O)CC[C@]4(C)[C@H]3C[C@H](O)[C@]12C observation_type=RLU endpoint_value="236.267 RLU"
smi=C[C@H](CCC(=O)NCC(=O)O)[C@H]1CC[C@H]2[C@@H]3[C@H](O)C[C@@H]4C[C@H](O)CC[C@]4(C)[C@H]3C[C@H](O)[C@]12C observation_type=RLU endpoint_value="164.283 RLU"
smi=C[C@H](CCC(=O)NCCS(=O)(=O)O)[C@H]1CC[C@H]2[C@@H]3CC[C@@H]4C[C@H](O)CC[C@]4(C)[C@H]3CC[C@]12C observation_type=RLU endpoint_value="-7.55 RLU"

###

Catalogue of compounds with associated RLU
# tested.system: human TAS2R14 (Homo sapiens, UniProt Q9NYV8)
# Construct: expressed in transfected cells; host or cells: HEK293T-Gα16gust44
# Sequence (Q9NYV8 whole entry): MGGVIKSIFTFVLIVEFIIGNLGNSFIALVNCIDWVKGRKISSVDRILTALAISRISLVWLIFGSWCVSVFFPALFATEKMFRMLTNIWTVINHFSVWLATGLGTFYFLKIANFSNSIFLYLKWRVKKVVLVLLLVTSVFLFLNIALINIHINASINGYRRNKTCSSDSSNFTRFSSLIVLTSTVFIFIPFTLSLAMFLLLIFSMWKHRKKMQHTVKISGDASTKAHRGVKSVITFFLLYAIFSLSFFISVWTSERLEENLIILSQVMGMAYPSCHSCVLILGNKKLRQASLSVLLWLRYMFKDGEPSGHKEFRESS
# assay.details: Calcium imaging assay (FLIPR), HEK293T-Gα16gust44 cells transfected with human TAS2R14
# Format: cell-based
# condition.description: TAS2R14 trace; Time (s) 38.797 (Chenodeoxycholic Acid 38.781)
observation.type: RLU (RLU)

compound="C[C@H](CCC(=O)O)[C@H]1CC[C@H]2[C@@H]3[C@H](O)C[C@@H]4C[C@H](O)CC[C@]4(C)[C@H]3C[C@H](O)[C@]12C [Cholic Acid, cholic acid]" endpoint_value=207.548
compound="C[C@H](CCC(=O)O)[C@H]1CC[C@H]2[C@@H]3[C@H](O)C[C@@H]4C[C@H](O)CC[C@]4(C)[C@H]3CC[C@]12C [Chenodeoxycholic Acid, chenodeoxycholic acid]" endpoint_value=280.38
compound="C[C@H](CCC(=O)NCCS(=O)(=O)O)[C@H]1CC[C@H]2[C@@H]3CC[C@@H]4C[C@H](O)CC[C@]4(C)[C@H]3CC[C@]12C [Taurolithocholic Acid, taurolithocholic acid]" endpoint_value=50.8625
compound="C[C@H](CCC(=O)NCC(=O)O)[C@H]1CC[C@H]2[C@@H]3[C@H](O)C[C@@H]4C[C@H](O)CC[C@]4(C)[C@H]3C[C@H](O)[C@]12C [Glycocholic Acid, glycocholic acid]" endpoint_value=109.443
compound="C[C@H](CCC(=O)NCCS(=O)(=O)O)[C@H]1CC[C@H]2[C@@H]3[C@H](O)C[C@@H]4C[C@H](O)CC[C@]4(C)[C@H]3C[C@H](O)[C@]12C [Taurocholic Acid, taurocholic acid]" endpoint_value=134.228

###

# tested.system: human TAS2R1 (Homo sapiens)
# Construct: expressed in transfected cells; host or cells: HEK293T-Gα16gust44
# Sequence (Q9NYW7 1-299): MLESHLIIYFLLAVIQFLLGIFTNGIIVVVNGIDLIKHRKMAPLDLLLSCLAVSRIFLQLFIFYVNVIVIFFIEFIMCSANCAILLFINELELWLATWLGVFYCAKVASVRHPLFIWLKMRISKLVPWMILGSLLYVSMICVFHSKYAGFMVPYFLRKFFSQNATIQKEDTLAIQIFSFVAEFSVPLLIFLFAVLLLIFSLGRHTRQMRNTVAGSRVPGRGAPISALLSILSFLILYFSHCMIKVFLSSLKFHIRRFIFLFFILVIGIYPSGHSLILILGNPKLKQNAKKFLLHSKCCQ
# assay.details: Calcium imaging assay (FLIPR), HEK293T-Gα16gust44 cells transfected with human TAS2R1
# Assay type: cell-based
# condition.description: Time 104.796 s
observation.type: RLU (RLU)

smi=C[C@H](CCC(=O)O)[C@H]1CC[C@H]2[C@@H]3[C@@H](O)C[C@@H]4C[C@H](O)CC[C@]4(C)[C@H]3CC[C@]12C tested_system="human TAS2R1 (Homo sapiens)" endpoint_value=467.659
smi=C[C@H](CCC(=O)O)[C@H]1CC[C@H]2[C@@H]3CC[C@@H]4C[C@H](O)CC[C@]4(C)[C@H]3CC[C@]12C tested_system="human TAS2R1 (Homo sapiens)" endpoint_value=894.373
smi=C[C@H](CCC(=O)O)[C@H]1CC[C@H]2[C@@H]3[C@H](O)C[C@@H]4C[C@H](O)CC[C@]4(C)[C@H]3CC[C@]12C tested_system="human TAS2R1 (Homo sapiens)" endpoint_value=673.465
smi=C[C@H](CCC(=O)O)[C@H]1CC[C@H]2[C@@H]3[C@H](O)C[C@@H]4C[C@H](O)CC[C@]4(C)[C@H]3C[C@H](O)[C@]12C tested_system="human TAS2R1 (Homo sapiens)" endpoint_value=579.697

###

Quick reference for RLU among some compounds
# tested.system: human TAS2R14 (Homo sapiens)
# Construct: expressed in transfected cells; host or cells: HEK293T-Gα16gust44
# assay.details: Calcium imaging assay (FLIPR), HEK293T-Gα16gust44 cells transfected with human TAS2R14
# Assay type: cell-based
# condition.description: TAS2R14 trace; Time (s) 34.797 (Chenodeoxycholic Acid 34.781)
observation.type: RLU (RLU)

compound="C[C@H](CCC(=O)NCCS(=O)(=O)O)[C@H]1CC[C@H]2[C@@H]3CC[C@@H]4C[C@H](O)CC[C@]4(C)[C@H]3CC[C@]12C [Taurolithocholic Acid, taurolithocholic acid]" endpoint_value=34.5332
compound="C[C@H](CCC(=O)O)[C@H]1CC[C@H]2[C@@H]3[C@H](O)C[C@@H]4C[C@H](O)CC[C@]4(C)[C@H]3CC[C@]12C [Chenodeoxycholic Acid, chenodeoxycholic acid]" endpoint_value=263.919
compound="C[C@H](CCC(=O)NCC(=O)O)[C@H]1CC[C@H]2[C@@H]3[C@H](O)C[C@@H]4C[C@H](O)CC[C@]4(C)[C@H]3C[C@H](O)[C@]12C [Glycocholic Acid, glycocholic acid]" endpoint_value=56.7501
compound="C[C@H](CCC(=O)O)[C@H]1CC[C@H]2[C@@H]3[C@H](O)C[C@@H]4C[C@H](O)CC[C@]4(C)[C@H]3C[C@H](O)[C@]12C [Cholic Acid, cholic acid]" endpoint_value=154.774
compound="C[C@H](CCC(=O)NCCS(=O)(=O)O)[C@H]1CC[C@H]2[C@@H]3[C@H](O)C[C@@H]4C[C@H](O)CC[C@]4(C)[C@H]3C[C@H](O)[C@]12C [Taurocholic Acid, taurocholic acid]" endpoint_value=70.0865
